# protocol-summary: Cytotoxicity against human HEK293T cells assessed as reduction in cell viability incubated for 24 hrs by CCK-8 assay
# Type: toxicity, cell-based, HEK-293T
assay-readout: IC50 at 24 h (µg/mL)
Answers are plain numbers, in µg/mL.

Would you please look over these solved cases?
record-smiles	IC50 at 24 h / µg/mL
CC[C@H](C)[C@@H]1NC(=O)[C@H](Cc2ccccc2)NC(=O)[C@@H]2C[C@]3(O)c4ccccc4N[C@H]3N2C(=O)[C@H]([C@@H](C)O)NC(=O)[C@@H](Cc2ccc(O)cc2)NC1=O	148
CC[C@H](C)[C@@H]1NC(=O)[C@H](Cc2ccccc2)NC(=O)[C@H](Cc2c[nH]c3ccccc23)NC(=O)[C@@H]([C@@H](C)O)NC(=O)[C@@H](Cc2ccc(O)cc2)NC1=O	6

Record IC50 at 24 h per entry; entries follow.
1. CC(C)C[C@H]1NC(=O)[C@H](Cc2ccccc2)NC(=O)[C@H](Cc2c[nH]c3ccccc23)NC(=O)[C@@H](C(C)C)NC(=O)[C@H](C(C)C)NC(=O)[C@@H](C)NC1=O
2. COc1cc([C@@H]2c3cc4c(cc3[C@H](O)[C@H]3COC(=O)[C@H]23)OCO4)cc(OC)c1OC

Ans.
1. 150
2. 20

###

Record form. Attribute: IC50 at 24 h. Fill in for each entry.
# protocol-summary: Cytotoxicity against human HepG2 cells assessed as reduction in cell viability incubated for 24 hrs by CCK-8 assay
# Format: toxicity, cell-based
Numbers only, in µg/mL.

record-smiles	IC50 at 24 h [µg/mL]
CC[C@H](C)[C@@H]1NC(=O)[C@H](Cc2ccccc2)NC(=O)[C@@H]2C[C@]3(O)c4ccccc4N[C@H]3N2C(=O)[C@H]([C@@H](C)O)NC(=O)[C@@H](Cc2ccc(O)cc2)NC1=O	110

Record IC50 at 24 h per entry; entries follow.
1. CC[C@H](C)[C@@H]1NC(=O)[C@H](Cc2ccccc2)NC(=O)[C@H](Cc2c[nH]c3ccccc23)NC(=O)[C@@H]([C@@H](C)O)NC(=O)[C@@H](Cc2ccc(O)cc2)NC1=O
2. COc1cc([C@@H]2c3cc4c(cc3[C@H](O)[C@H]3COC(=O)[C@H]23)OCO4)cc(OC)c1OC
3. CC(C)C[C@H]1NC(=O)[C@H](Cc2ccccc2)NC(=O)[C@H](Cc2c[nH]c3ccccc23)NC(=O)[C@@H](C(C)C)NC(=O)[C@H](C(C)C)NC(=O)[C@@H](C)NC1=O

Ans.
1. 29.6
2. 19.6
3. 125

###

Record form. Attribute: IC50 at 24 h. Fill in for each entry.
# protocol-summary: Cytotoxicity against mouse RAW264.7 cells assessed as reduction in cell viability incubated for 24 hrs by CCK-8 assay
# Format: toxicity, cell-based

Would you please look over these solved cases?
compound	IC50 at 24 h
CC(C)C[C@H]1NC(=O)[C@H](Cc2ccccc2)NC(=O)[C@H](Cc2c[nH]c3ccccc23)NC(=O)[C@@H](C(C)C)NC(=O)[C@H](C(C)C)NC(=O)[C@@H](C)NC1=O	7.7 µg/mL
CC[C@H](C)[C@@H]1NC(=O)[C@H](Cc2ccccc2)NC(=O)[C@@H]2C[C@]3(O)c4ccccc4N[C@H]3N2C(=O)[C@H]([C@@H](C)O)NC(=O)[C@@H](Cc2ccc(O)cc2)NC1=O	182 µg/mL
CC[C@H](C)[C@@H]1NC(=O)[C@H](Cc2ccccc2)NC(=O)[C@H](Cc2c[nH]c3ccccc23)NC(=O)[C@@H]([C@@H](C)O)NC(=O)[C@@H](Cc2ccc(O)cc2)NC1=O	17.2 µg/mL

// next item, IC50 at 24 h requested
Qu. Record request: IC50 at 24 h value, item COc1cc([C@@H]2c3cc4c(cc3[C@H](O)[C@H]3COC(=O)[C@H]23)OCO4)cc(OC)c1OC [PODOFILOX]
Ans. 61.3 µg/mL
